These data points were gathered from patent US20020086862A1.

RECORDED_ENDPOINT: melting point

melting point for CSc1ccccc1-c1nn(Cc2ccccc2)c(=S)[nH]1 ?
170 to 171 °C

// melting point lookup, key: COc1cccc(Cn2nc(-c3ccc(Cl)cc3Cl)[nH]c2=S)c1
173 to 174 °C

Fill blank: measured melting point of the compound S=c1[nH]c(-c2ccc(Br)cc2)nn1Cc1cccc(Cl)c1 is ____.
242 to 243 °C

Requested field: melting point. Item: FC(F)(F)c1ccc(Cn2nc(-c3ccccc3Cl)[nH]c2=S)cc1
167 to 168 °C

Would you mind telling me what melting point value was observed for CC(C)(C)c1ccc(Cn2nc(-c3ccccc3Cl)[nH]c2=S)cc1 ?
211 to 215 °C

Give its melting point value. Item: S=c1[nH]c(-c2ccc(Cl)cc2Cl)nn1Cc1ccc(Cl)cc1
205 to 206 °C

What does the record list as melting point for S=c1[nH]c(-c2cc(Cl)cc(Cl)c2)nn1Cc1ccccc1 ?
205 to 212 °C

Quick one: melting point of S=c1[nH]c(-c2ccc(Cl)s2)nn1Cc1ccccc1 ?
79 to 80 °C

Fill in the blank: the reported melting point of O=C(c1ccccc1)c1cccc(-c2nn(Cc3ccccc3)c(=S)[nH]2)c1 is ____.
154 to 155 °C
